For each of the binders below, state its IC50.
# target under test: HLA-A*0203 (human)
# test details: competition with 125I probe peptide on purified HLA, gel filtration
# setup conditions: remark: other sources report otherwise
Field: numeric (nM). Do not append units.

Data point: ALFPPEGVSI [Peptide 1419.6 … (PAP.122)] ; IC50 = 133

Sample ALDVYNGLL [Peptide 1177.02 … (PAP.299)] ; IC50 observed: 256

Item: GVSIWNPIV [Peptide 60.0207 … (PAP.128.V9)] | IC50: 909
